Data provenance is patent US9980943B2.

Test system: β-galactosidase in CMV-LacZ C2C12 myotubes
Assay: CMV-LacZ secondary screen in C2C12 myotubes (β-Gal stabilizing assay)
Format: cell-based, mouse
Conditions: 40 uM; C2C12 CMV-LacZ myotubes; fold relative to DMSO
Give CMV-LACZ in Myotubes, signal relative to DMSO for every item shown.
Please reply with the number alone, leaving off any unit.

Q: Need CMV-LACZ in Myotubes, signal relative to DMSO, item `c1ccc(-c2cc(-c3nc4ccccc4[nH]3)c3ccccc3n2)cc1`
A: 0.7060

Q: Do the same for `CC(C)(C)c1ccc(C(=O)OCC(=O)Nc2sc3c(c2C#N)CCC3)cc1` please
A: 0.9326

Q: Do the same for Cc1ccc(N2C(=O)C3NN=C(C(=O)OCc4ccccc4)C3C2=O)cc1 (stereo not shown) please
A: 1.1656

Q: Do the same for `COc1ccccc1CC(=O)Nc1cc(S(=O)(=O)N2CCOCC2)ccc1N1CCOCC1` please
A: 0.8580
